Target: T1, human IL-21R expressed on cells (human, UniProt Q9HBE5 20-538)
T1 construct: Transfected BaF3, TF1 and CHO cells; also native on primary human B and CD4+ T cells; also called hIL-21R; human IL-21R-BaF3 cells
T1 sequence (Q9HBE5 20-538 limits assumed): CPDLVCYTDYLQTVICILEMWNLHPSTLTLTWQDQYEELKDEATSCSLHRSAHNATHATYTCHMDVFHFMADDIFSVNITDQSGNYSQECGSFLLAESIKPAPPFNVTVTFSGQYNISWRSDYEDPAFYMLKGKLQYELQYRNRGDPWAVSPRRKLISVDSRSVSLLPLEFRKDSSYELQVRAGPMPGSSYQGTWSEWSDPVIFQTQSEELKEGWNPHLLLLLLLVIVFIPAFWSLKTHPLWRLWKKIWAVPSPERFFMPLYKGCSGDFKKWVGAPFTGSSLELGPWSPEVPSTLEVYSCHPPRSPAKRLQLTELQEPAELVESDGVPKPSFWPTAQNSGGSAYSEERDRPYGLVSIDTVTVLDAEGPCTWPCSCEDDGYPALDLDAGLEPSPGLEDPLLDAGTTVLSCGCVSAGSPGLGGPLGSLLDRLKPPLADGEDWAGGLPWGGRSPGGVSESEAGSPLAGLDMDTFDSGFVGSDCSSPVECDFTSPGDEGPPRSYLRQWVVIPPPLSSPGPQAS
Assay: cell ELISA on transfected CHO cells, 13 nM IgG
assay_readout: A450 at 13 nM Ab in cell ELISA (A450)
Numbers only here, please. The scale is A450.

- binder: "AbR (antibody, human IgG1, V domains shown, Purified form: human IgG1 double-mutant (L234A, G237A); Framework limits derived; also called VH3/VL18; VH3DM/VL18) VH: QVQLQESGPGLVKPSETLSLTCAVSGYSISSGYYWGWIRQPPGKGLEWIGSISHTGNTYYNPPLKSRVTISVDTSKNQFSLKLSSVTAADTAVYYCARFMGFGRPEYWGQGTLVTVSS VL: SSELTQDPAVSVALGQTVRITCQGDSLRTYYASWYQQKPGQAPVLVIYGKHKRPSGIPDRFSGSSSGNTASLTITGAQAEDEADYYCVTRSVKGNPHVLFGGGTQLTVL"
  endpoint_result: 1.33

We now examine a further binder.
Prompt line: Report A450 at 13 nM Ab in cell ELISA for AbT (antibody, human IgG1, V domains shown, Human IgG1 triple-mutant (L234A, L235A, G237A); Framework limits derived; also called VHP/VL9; VHPTM/VL9) VH: QVQLQESGPGLVKPSETLSLTCAVSGYSISSGYYWGWIRQPPGKGLEWIGSISHTGNTYYNPPLKSRVTISVDTSKNQFSLKLSSVTAADTAVYYCARGGGISRPEYWGQGTLVTVSS VL: SSELTQDPAVSVALGQTVRITCQGDSLRTYYASWYQQKPGQAPVLVIYGKHKRPSGIPDRFSGSSSGNTASLTITGAQAEDEADYYCVARSNKGNPHVLFGGGTQLTVL please.
Response line: 1.08
